measurement-kind: melting point

Value lookup for melting point; key = CCc1cc(C(=O)OC)c(Nc2ccc(OC)cc2[N+](=O)[O-])s1 125 to 127 °C

###

Measured melting point values are reported for all entries that follow.

COc1c(CBr)cccc1CBr = 83.5 to 85.5 °C
Cc1sc(-c2ccccc2)nc1CCOc1ccc(C[C@@H](C(=O)O)n2cccc2)cc1 = 157 to 158 °C
CC1COC(Nc2ccccc2)(c2ccnc(C(=O)c3ccc(Cl)cc3)c2)O1 (stereo unspecified) = 125 to 126 °C

Can you share its melting point? I mean this compound: COc1ccc(C2=C(C=O)c3ccc(OC)cc3CC2)cc1 142 °C

Request the reported melting point associated with O=C(NCCO)c1csc(-c2cccc([N+](=O)[O-])c2)n1 145 to 146 °C

Given Cc1nc(-c2ccc3c(c2)CCCC3)c(Br)o1 , state its recorded melting point. 97 to 98 °C

Where these numbers come from: a melting point compilation (Tetko et al.; mined from patent text by program, amines drawn as free bases though some values may be those of a salt)
